Origin of values: PubChem BioAssay (NCI)

- Tested on: NCI-H460 lung
- method description: NCI tumour cell line growth inhibition, 48 h
assay metric: TGI

Previously resolved entries follow.
>  <compound>
CC(=O)OCc1cc(OC(C)=O)cnc1COC(C)=O

>  <target desc>
NCI-H460 lung

>  <TGI>
> 100 µM

$$$$
>  <compound>
COc1ccc(N=c2ssc(C(=S)Nc3ccc(OC)cc3)c2S)cc1

>  <target desc>
NCI-H460 lung

>  <TGI>
> 100 µM

$$$$
>  <compound>
C#CCN=C(N/N=C/c1ccc([N+](=O)[O-])o1)NS(=O)(=O)c1cc(C)c(Cl)cc1SCC(N)=O

>  <target desc>
NCI-H460 lung

>  <TGI>
29.9 µM

$$$$

Prompt: Reported TGI for N=C1N(c2ccccc2)C(=O)C23CCCC2C13N1CCOCC1 (stereo not given) : what is it?
Completion: > 100 µM

Prompt: Reported TGI for O=C(C#CP(=O)(O)c1ccccc1)c1ccccc1 : what is it?
Completion: > 100 µM

Prompt: Reported TGI for COc1ccc(CNC2=C(NC(C)=O)C(=O)c3ccccc3C2=O)cc1 : what is it?
Completion: > 50 µM

Prompt: Reported TGI for C=C1C(=O)O[C@@H]2C(=O)[C@@H](C)[C@@H]3C=CC(=O)[C@@]3(C)[C@@H](OC(=O)/C(C)=C\C)[C@H]12 : what is it?
Completion: 6.05 µM

Prompt: Reported TGI for O=C(Nc1n[nH]c2nc(-c3ccco3)ccc12)C1CC1 : what is it?
Completion: > 25 µM

Prompt: Reported TGI for Clc1cc(Cl)c(Cl)c(-c2nc(-c3cccnc3)cs2)c1 : what is it?
Completion: > 100 µM

Prompt: Reported TGI for Nc1ncnc(NC2C=C(CO)C(O)C2O)c1[N+](=O)[O-] (stereo not given) : what is it?
Completion: > 100 µM

* * *

TGI listing for selected compounds.
- System: SNB-19 CNS
- method description: NCI tumour cell line growth inhibition, 48 h

Previously resolved entries follow.
>  <compound>
N[C@H]1CCN(c2c(F)cc3c(=O)c(C(=O)O)cn4c3c2Oc2cc3c(ccc5ccccc53)cc2-4)C1

>  <TGI>
> 100 µM

$$$$
>  <compound>
C=C1C(=O)O[C@H]2[C@H]1CC/C(COC(=O)CCCCCCCCC(=O)OC/C1=C/CC[C@@]3(C)O[C@H]3[C@H]3OC(=O)C(=C)[C@@H]3CC1)=C\CC[C@@]1(C)O[C@@H]21

>  <TGI>
6.51 µM

$$$$
>  <compound>
CN(C)CCn1c(=O)c2ccc3c4c(nn3CCN(C)C)c3cc(N)ccc3n(c1=O)c24

>  <TGI>
0.455 µM

$$$$
>  <compound>
CCCCCCCC/C=C\CCCCCCC(F)C(=O)O (centres undefined)

>  <TGI>
> 12.5 µM

$$$$
>  <compound>
O=C1c2cc3c(cc2-c2c1c1ccc(Cl)cc1c(=O)n2C[C@H](O)[C@@H](O)[C@H](O)CO)OCO3

>  <TGI>
> 100 µM

$$$$
>  <compound>
CC1(C)C(O)C[C@]23CCC[C@](C)(C[C@@H](O)C12)C3 (some centres undefined)

>  <TGI>
> 100 µM

$$$$
>  <compound>
ClCc1ccc(-c2ccc(Cn3cnc4c(Cl)nc(Cl)nc43)cc2)cc1

>  <TGI>
4.15 µM

$$$$
>  <compound>
COC(=O)C1C(O)CCC2CN3CCc4c([nH]c5cccc(OC)c45)C3CC21 (centres undefined)

>  <TGI>
> 100 µM

$$$$

Prompt: Reported TGI for Oc1c2cc(Br)cc1CCc1cc(Br)cc(c1O)CC2 : what is it?
Completion: > 100 µM
